Target system: dopamine D2 receptors (Homo sapiens (Human), UniProt P14416)
Sequence (P14416 whole entry): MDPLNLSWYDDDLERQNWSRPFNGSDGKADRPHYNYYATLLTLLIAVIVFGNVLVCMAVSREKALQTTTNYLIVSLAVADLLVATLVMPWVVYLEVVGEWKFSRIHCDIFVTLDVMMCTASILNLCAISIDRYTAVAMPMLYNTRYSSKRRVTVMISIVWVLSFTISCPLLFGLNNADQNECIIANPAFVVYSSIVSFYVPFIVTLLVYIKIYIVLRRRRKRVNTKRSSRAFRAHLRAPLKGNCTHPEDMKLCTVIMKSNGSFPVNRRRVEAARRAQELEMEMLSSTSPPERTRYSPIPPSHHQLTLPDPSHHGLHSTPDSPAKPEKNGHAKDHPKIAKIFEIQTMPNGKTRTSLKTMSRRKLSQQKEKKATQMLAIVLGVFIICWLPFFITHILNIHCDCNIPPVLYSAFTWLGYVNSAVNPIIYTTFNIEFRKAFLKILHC
Test: G protein Gαi1-γ9 dissociation BRET, dopamine D2 receptor functional activity
Format: cell-based
Assay conditions: antagonistic activity; single determination; read-out: Gai1 BRET EC50 (antagonistic activity)
Result type: EC50 (µM)
Answer format: numeric, µM implied, no suffix.

Recorded EC50 of Cn1cc2c3c(cccc31)N1CCN(CCCC(O)c3ccc(F)cc3)CC1C2 (centres unmarked) [Compound I-27] , please. 1.2

Recorded EC50 of Cn1cc2c3c(cccc31)N1CCN(CCCC(=O)c3ccc(F)cc3)CC1C2 (centres unmarked) [Compound I-26] , please. 7.62

---

Test: Pharmacokinetic properties in C57 male mice, single dose (plasma, LC-MS/MS)
Format: in vivo
Assay conditions: mouse, plasma, ip, intraperitoneal injection 1 mg/kg, read-out: Mean residence time MRTPO
Result type: MRT
Field note: include the unit after the figure.

Recorded MRT of CN(C)C(=O)N[C@H]1CC[C@H](CCN2CCN3c4cccc5[nH]cc(c45)C[C@H]3C2)CC1 [(−)-I-10] , please. 46.2 min

---

Test: Brain permeability in C57 male mice (plasma and brain tissue concentration)
Assay type: in vivo
Assay conditions: mouse, plasma, intravenous injection 1 mg/kg, read-out: Drug concentration at 2.0 h in plasma
Method: • 2. Test of the brain permeability of compound (−)-I-10 administered to C57 male mice by single intragastric administration, intraperitoneal injection and intravenous injection Using the same method as the pharmacokinetic experiment, 0.030 mL of blood was taken from each animal through the orbit at 0.5 and 2.0 hours, respectively, and anticoagulated with EDTA-K2. […] The drug concentrations in plasma and brain tissue were analyzed by LC/MS/MS and compared.
Result type: concentration at 2 h (ng/mL)
Answer format: numeric, ng/mL implied, no suffix.

Recorded concentration at 2 h of CN(C)C(=O)N[C@H]1CC[C@H](CCN2CCN3c4cccc5[nH]cc(c45)C[C@H]3C2)CC1 [(−)-I-10] , please. 24.9

---

Target system: dopamine D2 receptors (Homo sapiens (Human))
Test: β-arrestin2 recruitment BRET, dopamine D2 receptor functional activity
Type: cell-based
Assay conditions: relative to the endogenous ligand dopamine; read-out: β-arrestin2 BRET Emax % ± SEM
Just a reminder that ties go to label 0: only Emax strictly below 80% counts as label 1.

Record O=c1ccc2ccc(OC/C=C/CN3CCN4c5cccc6[nH]cc(c56)CC4C3)cc2[nH]1 (stereo not shown) : is its Emax strictly below 80%? label 0

Record Cc1noc2cc(OCCCCN3CCN4c5cccc6[nH]cc(c56)CC4C3)ccc12 (stereo not shown) : is its Emax strictly below 80%? label 1

Record c1cc2c3c(c[nH]c3c1)CC1CN(CCCCOc3ccc4c(c3)OCC4)CCN21 (stereo not shown) : is its Emax strictly below 80%? label 1

Record O=C(N[C@H]1CC[C@H](CCN2CCN3c4cccc5[nH]cc(c45)CC3C2)CC1)N1CCCCC1 (stereo partly shown) : is its Emax strictly below 80%? label 0

Record Cc1nc2n(c(=O)c1CCN1CCN3c4cccc5[nH]cc(c45)CC3C1)CCCC2 (stereo not shown) : is its Emax strictly below 80%? label 1

Record O=C1CCc2ccc(OC/C=C/CN3CCN4c5cccc6[nH]cc(c56)CC4C3)cc2N1 (stereo not shown) : is its Emax strictly below 80%? label 0

Record Cn1cc2c3c(cccc31)N1CCN(CCCCOc3ccc4ccc(=O)[nH]c4c3)CC1C2 (stereo not shown) : is its Emax strictly below 80%? label 1

Record O=C(N[C@H]1CC[C@H](CCN2CCN3c4cccc5[nH]cc(c45)CC3C2)CC1)N1CCCC1 (stereo partly shown) : is its Emax strictly below 80%? label 0

Record O=C(CCCN1CCN2c3cccc4[nH]cc(c34)CC2C1)c1ccc(F)cc1 (stereo not shown) : is its Emax strictly below 80%? label 1

Record O=C1CCc2ccc(OCCCCN3CCN4c5cccc6[nH]cc(c56)CC4C3)cc2N1 (stereo not shown) : is its Emax strictly below 80%? label 0

Record O=C(N[C@H]1CC[C@H](CCN2CCN3c4cccc5[nH]cc(c45)CC3C2)CC1)c1ccccc1 (stereo partly shown) : is its Emax strictly below 80%? label 1

Record O=C1CCc2ccc(OCCCN3CCN4c5cccc6[nH]cc(c56)CC4C3)cc2N1 (stereo not shown) : is its Emax strictly below 80%? label 0

Record Cc1nc2cc(OCCCCN3CCN4c5cccc6[nH]cc(c56)CC4C3)ccc2o1 (stereo not shown) : is its Emax strictly below 80%? label 1

Record Cn1cc2c3c(cccc31)N1CCN(C/C=C/COc3ccc4ccc(=O)[nH]c4c3)CC1C2 (stereo not shown) : is its Emax strictly below 80%? label 1

Record c1cc2c3c(c[nH]c3c1)CC1CN(CCCCOc3ccc4scnc4c3)CCN21 (stereo not shown) : is its Emax strictly below 80%? label 0

Record OC(CCCN1CCN2c3cccc4[nH]cc(c34)CC2C1)c1ccc(F)cc1 (stereo not shown) : is its Emax strictly below 80%? label 1

Record CN(C)C(=O)N[C@H]1CC[C@H](CCN2CCN3c4cccc5[nH]cc(c45)C[C@@H]3C2)CC1 [(+)-I-10] : is its Emax strictly below 80%? label 0

Record O=c1ccc2ccc(OCCCCN3CCN4c5cccc6[nH]cc(c56)CC4C3)cc2[nH]1 (racemic) [Compound I-2] : is its Emax strictly below 80%? label 0
